- System name: LXRβ (Homo sapiens, UniProt P55055)
- Construct: Co-transfection expression plasmids, comprising full-length LXRα (pCMX-h LXRα[…] or LXRβ (pCMX-hLXRβ)); expressed in transfected cells; host or cells: CV-1 African Green Monkey Kidney Cells
- Sequence (P55055 1-460): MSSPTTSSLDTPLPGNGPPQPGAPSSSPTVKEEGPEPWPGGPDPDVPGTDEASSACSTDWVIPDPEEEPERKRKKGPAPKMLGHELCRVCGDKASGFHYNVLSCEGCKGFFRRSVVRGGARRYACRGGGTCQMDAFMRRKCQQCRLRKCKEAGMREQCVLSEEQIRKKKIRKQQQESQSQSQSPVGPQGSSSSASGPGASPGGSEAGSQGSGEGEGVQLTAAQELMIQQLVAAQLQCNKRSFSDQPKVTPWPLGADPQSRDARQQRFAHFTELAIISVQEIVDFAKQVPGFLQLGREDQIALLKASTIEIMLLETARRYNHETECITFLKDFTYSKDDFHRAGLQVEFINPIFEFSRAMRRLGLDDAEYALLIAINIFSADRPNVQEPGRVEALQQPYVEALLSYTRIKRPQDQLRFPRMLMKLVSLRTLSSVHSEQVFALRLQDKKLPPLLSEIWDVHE
- Sequence (P19793 1-462 partner): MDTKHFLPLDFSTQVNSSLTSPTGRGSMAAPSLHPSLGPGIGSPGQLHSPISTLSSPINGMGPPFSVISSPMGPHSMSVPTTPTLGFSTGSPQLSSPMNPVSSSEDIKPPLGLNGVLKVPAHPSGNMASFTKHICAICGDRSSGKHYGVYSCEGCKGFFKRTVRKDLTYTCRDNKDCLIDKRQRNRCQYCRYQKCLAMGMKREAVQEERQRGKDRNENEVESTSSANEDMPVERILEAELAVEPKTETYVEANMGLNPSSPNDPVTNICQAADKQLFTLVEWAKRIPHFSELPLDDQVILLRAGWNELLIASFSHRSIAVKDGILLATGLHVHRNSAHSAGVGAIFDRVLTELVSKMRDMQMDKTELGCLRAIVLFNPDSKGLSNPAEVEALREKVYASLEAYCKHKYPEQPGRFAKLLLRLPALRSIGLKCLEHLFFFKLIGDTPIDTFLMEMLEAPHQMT
- Assay method text: Co-transfection assay (LXRE luciferase reporter), LXRβ
- Format: cell-based
- Parameters: concentration or dose not given beside the values
- Condition: LXRβ co-transfection; relative to high control 1-(2,4-difluorobenzyl)-2-oxo-6-(4-phenoxyphenyl)-4-(trifluoromethyl)-1,2-dihydropyridine-3-carbonitrile
Reported endpoint: % Efficacy (%)
Answers are plain numbers, in %.

Consider the worked cases shown below.
Compound: Cc1cc(-c2oc(C)nc2-c2cc(-c3cc(F)c(CO)c(S(C)(=O)=O)c3)ccc2-n2cc(C(F)(F)F)nc2C)cc(Cl)n1 [Example 452]
% Efficacy, %: 55
--
Compound: Cc1cc(-c2oc(C)nc2-c2cc(-c3cc(F)c(CO)c(S(C)(=O)=O)c3)ccc2-n2cc(C(F)(F)F)nc2C)cc(Cl)n1 [Example 432]
% Efficacy, %: 83

# context switch: different compound, same % Efficacy
Task item: If you can, please state the reported % Efficacy value of Cc1nc(-c2cc(-c3cc(F)c(CO)c(S(C)(=O)=O)c3)ccc2-n2cc(C(C)O)nc2C)c(-c2ccc3c(c2)OC(F)(F)O3)o1 (single isomer, unassigned) [Example 516] .
Reply: 41

Data origin, for the record: patent US9834542B2
